# system.name: human C5 protein (human, UniProt P01031 19-673; P01031 678-1676)
# experiment: cell-based or functional assay
Positions of bridges follow the written chain, without caps; N, C: chain ends. Non-standard residues stand in square brackets, D forms with d. Primed or numbered codes have the meaning given here. No end group written: not given here. mXylyl(3) = bridging moiety between the two residues given in brackets; mXylyl″ = bridging moiety between the two marked residues; Trp(7-aza) = N[C@@H](Cc1c[nH]c2ncccc12)C(=O)O; mXylyl(4) = bridging moiety between residues; pXylyl = bridging moiety between residues; Chg = N[C@H](C(=O)O)C1CCCCC1; Phg = N[C@H](C(=O)O)c1ccccc1; Tle = CC(C)(C)[C@H](N)C(=O)O; NMeS = CN[C@@H](CO)C(=O)O; Nva = CCC[C@H](N)C(=O)O
property.measured: Avg. IC50, human hemolysis assay (nM)

binder: MCVERFC-NH2 (linker 2-7 via mXylyl(4)) [R3047]
property.measured: Avg. IC50, human hemolysis assay
unit.label: nM
censoring.sign: >
recorded.number: 100000

binder: Ac-[Nva]C[Chg]T[Trp(7-aza)]EY[NMeS]HC[Nva]-NH2 (linker 2-10 via pXylyl) [R3058]
property.measured: Avg. IC50, human hemolysis assay
unit.label: nM
censoring.sign: >
recorded.number: 10000

binder: Ac-AC[Phg]T[Trp(7-aza)]EY[NMeS]HC[Nva]-NH2 (linker 2-10 via mXylyl(4)) [R3031]
property.measured: Avg. IC50, human hemolysis assay
unit.label: nM
censoring.sign: =
recorded.number: 1090

binder: Ac-[Nva]CYEN[Tle]Y[Trp(7-aza)]EYP[Phg][Nva]C-NH2 (linker 2-14 via mXylyl″) [R3019]
property.measured: Avg. IC50, human hemolysis assay
unit.label: nM
censoring.sign: =
recorded.number: 1320

binder: Ac-CVERACD[Tle]Y[Trp(7-aza)]EYP[Phg][Nva]-NH2 (linker 1-6 via mXylyl(3)) [R3155]
property.measured: Avg. IC50, human hemolysis assay
unit.label: nM
censoring.sign: =
recorded.number: 1530

Measured values drawn from patent US20210283212A1 for this set.
